# reported IC50; entries follow
# system-name: UniProt:Q14330
# Sequence (Q14330 whole entry, the tested form may be a part): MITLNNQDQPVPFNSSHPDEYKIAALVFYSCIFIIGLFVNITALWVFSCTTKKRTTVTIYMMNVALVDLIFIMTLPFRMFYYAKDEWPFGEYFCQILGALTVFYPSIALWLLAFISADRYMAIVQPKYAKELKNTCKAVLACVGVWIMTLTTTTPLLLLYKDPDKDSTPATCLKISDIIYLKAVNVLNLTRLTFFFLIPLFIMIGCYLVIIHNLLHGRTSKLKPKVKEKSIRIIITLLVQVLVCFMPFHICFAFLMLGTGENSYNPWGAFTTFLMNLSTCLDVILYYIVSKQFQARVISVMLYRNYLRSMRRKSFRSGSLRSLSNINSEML
# assay-name: Antagonist activity against human GPR18 expressed in CHO cells assessed as reduction in delta9-THC-induced beta-arrestin recruitment by beta-galactosidase enzyme fragment complementation method

Reference set (6 entries):
O=C1/C(=C/c2ccccc2Cl)N=C2SCCCN12    > 10 µM
O=C(Oc1cccc(/C=C2\N=C3SCCCN3C2=O)c1)c1ccc(Cl)cc1    14.3 µM
O=C1N=C2SCCCN2/C1=C\C=C\c1ccccc1    > 10 µM
CCOC(=O)C1CN2C(=NC(=O)C2(c2ccccc2)c2ccccc2)S1 (centres undefined)    > 10 µM
O=C1/C(=C/c2ccc([N+](=O)[O-])cc2)N=C2SCCCN12    > 10 µM
COc1ccc(/C=C2\N=C3SCCCN3C2=O)cc1OC    > 10 µM

Challenge: Entry `O=C1/C(=C/C=C/c2ccccc2)N=C2SCCCN12` has what IC50?
Response given: > 10 µM

Challenge: Entry `O=C1/C(=C/c2cccc(OCc3ccc(Cl)cc3)c2)N=C2SCCCN12` has what IC50?
Response given: 0.279 µM

Challenge: Entry CCCCC/C=C\C/C=C\C/C=C\C/C=C\CCCC(=O)NCC(=O)O [ARACHIDONOYL GLYCINE] has what IC50?
Response given: > 10 µM

====

The following molecules each carry a recorded Ki for Cannabinoid receptor 1 (Rattus norvegicus, UniProt P20272).

Reference set (5 entries):
O=C1/C(=C/c2cccc(OCc3ccc(Cl)cc3)c2)N=C2SCCCN12    8.24 µM
CN(C)c1ccc(/C=C2\N=C3SCCCN3C2=O)cc1    > 10 µM
O=C1N=C2SCCCN2/C1=C\C=C\c1ccccc1    > 10 µM
O=C1N=C2SCCCN2C1(c1ccccc1)c1ccccc1    > 10 µM
CCOC(=O)C1CN2C(=O)C(c3ccccc3)(c3ccccc3)N=C2S1 (stereo not drawn)    > 10 µM

Challenge: Entry `O=C(Oc1cccc(/C=C2\N=C3SCCCN3C2=O)c1)c1ccccc1` has what Ki?
Response given: > 10 µM

Challenge: Entry `O=C1/C(=C/c2cccc([N+](=O)[O-])c2)N=C2SCCCN12` has what Ki?
Response given: > 10 µM

Challenge: Entry `O=C1/C(=C/c2cccc(Oc3ccccc3)c2)N=C2SCCCN12` has what Ki?
Response given: 6.58 µM

====

# system-name: Cannabinoid receptor 2 (Homo sapiens)
# Sequence (P34972 whole entry): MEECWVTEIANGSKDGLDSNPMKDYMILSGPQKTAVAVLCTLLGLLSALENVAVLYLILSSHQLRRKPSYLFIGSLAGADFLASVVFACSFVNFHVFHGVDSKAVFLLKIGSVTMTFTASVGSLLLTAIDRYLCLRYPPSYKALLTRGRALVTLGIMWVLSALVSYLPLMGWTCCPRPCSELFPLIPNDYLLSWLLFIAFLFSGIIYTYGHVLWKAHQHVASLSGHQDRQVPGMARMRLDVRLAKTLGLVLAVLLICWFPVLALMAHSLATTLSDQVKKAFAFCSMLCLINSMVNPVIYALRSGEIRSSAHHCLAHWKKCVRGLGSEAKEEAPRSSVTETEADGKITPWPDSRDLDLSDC
# assay-name: Displacement of [3H]CP55,940 from human recombinant CB2 receptor expressed in HEK293 cells
pKi: −log10 of the molar value.
# reported pKi; entries follow

Reference set (5 entries):
O=C1N2CCSC2=NC1(c1ccccc1)c1ccccc1    < 5.00
O=C1/C(=C/c2cccc(F)c2F)N=C2SCCCN12    < 5.00
COc1ccccc1/C=C1\N=C2SCCCN2C1=O    < 5.00
O=C1/C(=C/c2cccc(Cl)c2)N=C2SCCCN12    < 5.00
COc1ccc(/C=C2\N=C3SCCCN3C2=O)c(OC)c1    5.59

# evaluate next
Challenge: Entry CCCCC/C=C\C/C=C\C/C=C\C/C=C\CCCC(=O)NCC(=O)O [ARACHIDONOYL GLYCINE] has what pKi?
Response given: < 5.00

====

# system-name: G-protein coupled receptor 55 (Homo sapiens)
# Sequence (Q9Y2T6 whole entry, the tested form may be a part): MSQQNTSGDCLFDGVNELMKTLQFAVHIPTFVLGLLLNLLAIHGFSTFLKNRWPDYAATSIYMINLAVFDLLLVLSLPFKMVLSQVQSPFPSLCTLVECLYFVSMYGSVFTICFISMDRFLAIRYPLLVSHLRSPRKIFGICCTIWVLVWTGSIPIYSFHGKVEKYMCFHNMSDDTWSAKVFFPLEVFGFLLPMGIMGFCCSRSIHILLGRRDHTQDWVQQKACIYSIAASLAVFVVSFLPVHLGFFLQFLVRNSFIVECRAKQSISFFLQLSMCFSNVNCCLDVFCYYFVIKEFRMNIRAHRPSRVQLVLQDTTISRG
# assay-name: Antagonist activity against human GPR55 expressed in CHO cells assessed as reduction in LPI-induced beta-arrestin recruitment at 10 uM by beta-galactosidase enzyme fragment complementation method
# Assay type: cell-based
Response field class: enum, chosen by comparing inhibition against low = under 6%, moderate = from 6% up to 20%, high = 20% and over

O=C(Oc1cccc(/C=C2\N=C3SCCCN3C2=O)c1)c1ccc(Cl)cc1    moderate

Challenge: Lab note: which band did `O=C1/C(=C/c2c(Cl)cccc2Cl)N=C2SCCCN12` land in?
Response given: low

Challenge: Lab note: which band did `O=C1N=C2SCCN2C1(c1ccccc1)c1ccccc1` land in?
Response given: high

This collection of values is drawn from ChEMBL document CHEMBL3217528.
